Tgt: human OX2R (Homo sapiens)
Sequence (O43614 whole entry): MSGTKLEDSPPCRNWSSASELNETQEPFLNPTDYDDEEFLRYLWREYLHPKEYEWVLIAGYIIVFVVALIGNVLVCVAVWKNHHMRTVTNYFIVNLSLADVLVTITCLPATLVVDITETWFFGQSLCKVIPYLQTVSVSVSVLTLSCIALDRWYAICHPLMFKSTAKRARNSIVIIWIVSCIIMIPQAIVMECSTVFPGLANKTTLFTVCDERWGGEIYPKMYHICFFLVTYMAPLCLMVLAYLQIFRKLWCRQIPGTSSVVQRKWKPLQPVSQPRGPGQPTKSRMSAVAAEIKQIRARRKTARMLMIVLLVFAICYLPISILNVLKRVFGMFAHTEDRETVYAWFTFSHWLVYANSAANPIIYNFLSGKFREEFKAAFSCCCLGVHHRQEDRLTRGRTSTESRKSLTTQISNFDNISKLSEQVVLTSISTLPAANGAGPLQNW
Method: IPOne (IP-1) orexin receptor agonist assay in CHO cells expressing human OX2R
Condition context: IPOne assay, CHO cells expressing human OX2R, 2 hours incubation; read-out: hoX2R_IP IC50
Exam item: assign condition met to entries whose IC50 is below 3 nM and condition not met to entries at or above 3 nM. Note that a value of exactly 3 nM receives condition not met.

Here's what some known entries look like.
- Compound: "COC(=O)N1[C@H](C)C[C@H](NS(=O)(=O)N(C)C)[C@@H]1COC1CCC2(c3cnccn3)CC2C1 (single isomer, unassigned) [Example 14]"
  Tgt: "human OX2R (Homo sapiens)"
  Cat: "condition not met"
- Compound: "COC(=O)N1[C@H](C)C[C@H](NS(=O)(=O)CF)[C@@H]1COC1CCC2(c3ncc(Br)cn3)CC2C1 (stereo partly drawn) [Example 89]"
  Tgt: "human OX2R (Homo sapiens)"
  Cat: "condition met"
- Compound: "COC(=O)N1[C@@H]2COC[C@@H]2C(NS(C)(=O)=O)[C@@H]1COC1CCC2(c3ncc(F)cn3)CC2C1 (mixture of isomers) [Example 134]"
  Tgt: "human OX2R (Homo sapiens)"
  Cat: "condition not met"
- Compound: "CC(C)OC(=O)N1[C@H](C)C[C@H](NS(C)(=O)=O)[C@@H]1CO[C@H]1CC[C@@]2(c3ncc(F)cn3)C[C@H]2C1 (single isomer, unassigned) [Example 28]"
  Tgt: "human OX2R (Homo sapiens)"
  Cat: "condition not met"

With those in mind, consider the next compound.
IN: Does this compound meet the criterion IC50 < 3 nM? COC(=O)N1[C@H](C)C[C@H](NS(=O)(=O)C(F)F)[C@@H]1CO[C@H]1CC[C@@]2(c3ncccn3)C[C@H]2C1 (single isomer, unassigned) [Example 68]
OUT: condition met

----------
Would you mind telling me the reported IC50 of each entry?
Tgt: human OX2R (Homo sapiens)
Method: IPOne (IP-1) orexin receptor agonist assay in CHO cells expressing human OX2R
Condition context: IPOne assay, CHO cells expressing human OX2R, 2 hours incubation; read-out: hoX2R_IP IC50
One number for each entry, in nM.

Examples from the recorded data:
- Compound: "CC(C)OC(=O)N1[C@H](C)C[C@H](NS(=O)(=O)C(F)F)[C@@H]1COC1CCC2(c3ncc(F)cn3)CC2C1 (stereo partly drawn)"
  Tgt: "human OX2R (Homo sapiens)"
  IC50 / nM: 3.5
- Compound: "COC(=O)N1[C@H](C)C[C@H](NS(=O)(=O)N(C)C)[C@@H]1COC1CCC2(c3ncc(F)cn3)CC2C1 (single isomer, unassigned)"
  Tgt: "human OX2R (Homo sapiens)"
  IC50 / nM: 575

Would you kindly look at the next entry?
For the compound COC(=O)N1[C@H](C)C[C@H](NS(=O)(=O)CF)[C@@H]1COC1CCC2(c3ncc(Cl)c(OC)n3)CC2C1 (stereo partly drawn) , the measured IC50 on human OX2R (Homo sapiens) was 9.9

----------
Tgt: human OX2R (Homo sapiens)
Construct: expressed in transfected cells; host or cells: CHO (Chinese hamster ovary) cells, grown under G418 selection
Method: IPOne (IP-1) orexin receptor agonist assay in CHO cells expressing human OX2R
Assay type: cell-based
Condition context: IPOne assay, CHO cells expressing human OX2R, 2 hours incubation; read-out: hoX2R_IP IC50
pIC50: −log10 of the molar value.
Decision: pIC50 compared against 8; not below it gives 1, below it gives 0.

Here's what some known entries look like.
- Compound: "C[C@@H]1C[C@H](NS(C)(=O)=O)[C@H](CO[C@H]2CC[C@@]3(c4ncc(F)cn4)C[C@H]3C2)N1C(=O)OC[C@H]1[C@H](C)C1(F)F [Example 55]"
  Cat: 1
- Compound: "COC(=O)N1[C@H](C)C[C@H](NS(=O)(=O)C2CC2)[C@@H]1CO[C@H]1CC[C@@]2(c3ncc(F)cn3)C[C@H]2C1 [Example 42]"
  Cat: 1
- Compound: "CC(F)COC(=O)N1[C@H](C)C[C@H](NS(C)(=O)=O)[C@@H]1CO[C@H]1CC[C@@]2(c3ncc(F)cn3)C[C@H]2C1 (stereo partly shown) [Example 58]"
  Cat: 1

IN: Is reported pIC50 greater than or equal to 8 here: COC(=O)N1[C@H](C)C[C@H](NS(=O)(=O)C(F)(F)F)[C@@H]1CO[C@@H]1CC[C@]2(c3ncc(F)cn3)C[C@@H]2C1 [Example 44]
OUT: 0

IN: Is reported pIC50 greater than or equal to 8 here: COC(=O)N1[C@H](C)C[C@H](NS(=O)(=O)CC(C)C)[C@@H]1CO[C@H]1CC[C@@]2(c3ncc(F)cn3)C[C@H]2C1 [Example 35]
OUT: 0

IN: Is reported pIC50 greater than or equal to 8 here: COC(=O)N1[C@H](C)C[C@H](NS(=O)(=O)N(C)C)[C@@H]1COC1CCC2(c3cnccn3)CC2C1 (single isomer, unassigned) [Example 11]
OUT: 0

IN: Is reported pIC50 greater than or equal to 8 here: C[C@@H]1C[C@H](NS(C)(=O)=O)[C@H](CO[C@H]2CC[C@@]3(c4ncc(F)cn4)C[C@H]3C2)N1C(=O)OC[C@H]1C[C@H]1F [Example 51]
OUT: 1

IN: Is reported pIC50 greater than or equal to 8 here: COC(=O)N1[C@@H]2CCC[C@@H]2[C@H](NS(=O)(=O)C2CC2)[C@@H]1COC1CCC2(c3ncc(F)cn3)CC2C1 (stereo partly shown) [Example 128]
OUT: 1

IN: Is reported pIC50 greater than or equal to 8 here: COC(=O)N1[C@H](C)C[C@H](NS(=O)(=O)N2CCC2)[C@@H]1CO[C@H]1CC[C@@]2(c3ncc(F)cn3)C[C@H]2C1 [Example 39]
OUT: 1

IN: Is reported pIC50 greater than or equal to 8 here: COC(=O)N1[C@H](C)C[C@H](NS(=O)(=O)N(C)C)[C@@H]1COC1CCC2(c3ccc(C#N)cc3)CC2C1 (stereo partly shown) [Example 5]
OUT: 0

IN: Is reported pIC50 greater than or equal to 8 here: COC(=O)N1[C@H](C)C[C@H](NS(C)(=O)=O)[C@@H]1COC1CCC2(c3ncc(F)c(C4CC4)n3)CC2C1 (stereo partly shown) [Example 74]
OUT: 0
